targetUnderTest: T1, HCoV-OC43 nucleocapsid (N) protein, 2X-StrepTag tagged (HCoV-OC43, UniProt P33469 1-448)
T1 sequence: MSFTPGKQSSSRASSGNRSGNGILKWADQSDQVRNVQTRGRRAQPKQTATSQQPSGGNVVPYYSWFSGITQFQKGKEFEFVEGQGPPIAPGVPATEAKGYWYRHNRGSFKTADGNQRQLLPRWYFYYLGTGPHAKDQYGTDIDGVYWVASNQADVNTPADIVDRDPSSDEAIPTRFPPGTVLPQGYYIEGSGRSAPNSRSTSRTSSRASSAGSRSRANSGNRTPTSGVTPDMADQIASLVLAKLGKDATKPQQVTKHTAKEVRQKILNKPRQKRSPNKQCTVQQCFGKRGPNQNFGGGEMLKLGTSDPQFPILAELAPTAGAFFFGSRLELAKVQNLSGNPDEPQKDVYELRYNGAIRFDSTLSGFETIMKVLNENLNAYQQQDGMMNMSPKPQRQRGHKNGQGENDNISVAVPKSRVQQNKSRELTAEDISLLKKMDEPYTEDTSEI
assayName: BLI
observedProperty: pKd
One number for each entry, as −log10 of the molar value.

CCL21 (ligand) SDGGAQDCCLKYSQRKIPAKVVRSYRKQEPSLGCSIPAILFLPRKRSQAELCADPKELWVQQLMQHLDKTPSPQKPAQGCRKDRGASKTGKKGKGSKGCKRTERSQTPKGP: 6.54
CCL28 (ligand) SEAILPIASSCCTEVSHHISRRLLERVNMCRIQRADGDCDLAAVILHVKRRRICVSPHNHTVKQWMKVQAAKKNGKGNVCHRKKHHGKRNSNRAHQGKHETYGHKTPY: 7.57
CXCL11 (ligand) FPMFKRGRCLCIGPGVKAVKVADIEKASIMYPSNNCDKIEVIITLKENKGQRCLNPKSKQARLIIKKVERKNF: 6.14

Then this binder:
Prompt: Item under review: CCL26 (ligand) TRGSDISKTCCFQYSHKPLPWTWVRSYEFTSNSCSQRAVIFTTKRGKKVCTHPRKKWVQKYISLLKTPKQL . Reported pKd?
Response: 6.21
